Data credit: the NIST ThermoML archive (doi:10.1021/acs.jced.8b01120)

conditions: 308.15 K; 100 kPa; Liquid; Single path-length method
Each record here notes measured speed of sound.
Property Measured: speed of sound (m/s)

1) COC(C)=O [methyl ethanoate] = 1109.2
2) CCCCN(CCCC)CCCC = 1207.4
3) CCCCOC(C)=O [butyl ethanoate] = 1153.9
4) CCCCCOC(C)=O [pentyl ethanoate] = 1174.2
5) CCOC(C)=O [ethyl acetate] = 1097.2
6) CCCOC(C)=O [propyl ethanoate] = 1123.7

---

details: 293.15 K; 100 kPa; Liquid; Vibrating tube method
Property Measured: mass density (kg/m3)

1) COC(C)=O [methyl ethanoate] = 935.01
2) CCOC(C)=O [ethyl acetate] = 900.882
3) CCCOC(C)=O [propyl ethanoate] = 888.964
4) CCCCCOC(C)=O [pentyl ethanoate] = 876.248
5) CCCCOC(C)=O [butyl ethanoate] = 881.54

---

Each record here notes measured speed of sound.
conditions: 313.15 K; 100 kPa; Liquid; Single path-length method
Property Measured: speed of sound (m/s)

1. COC(C)=O [methyl ethanoate] = 1089.6
2. CCOC(C)=O [ethyl acetate] = 1075
3. CCCCCOC(C)=O [pentyl ethanoate] = 1152.3
4. CCCCOC(C)=O [butyl ethanoate] = 1131.5
5. CCCCN(CCCC)CCCC = 1188.8
6. CCCOC(C)=O [propyl ethanoate] = 1102.3

---

details: 298.15 K; 100 kPa; Liquid; Vibrating tube method
Property Measured: mass density (kg/m3)

1) CCOC(C)=O [ethyl acetate] = 894.79
2) CCCCOC(C)=O [butyl ethanoate] = 876.399
3) COC(C)=O [methyl ethanoate] = 928.458
4) CCCCCOC(C)=O [pentyl ethanoate] = 871.32
5) CCCOC(C)=O [propyl ethanoate] = 883.369

---

conditions: 298.15 K; 100 kPa; Liquid; Single path-length method
Each record here notes measured speed of sound.
Property Measured: speed of sound (m/s)

1) COC(C)=O [methyl ethanoate] = 1157.5
2) CCOC(C)=O [ethyl acetate] = 1142.9
3) CCCCCOC(C)=O [pentyl ethanoate] = 1220.7
4) CCCCOC(C)=O [butyl ethanoate] = 1191.5
5) CCCCN(CCCC)CCCC [tributylamine] = 1245.2
6) CCCOC(C)=O [propyl ethanoate] = 1164.2

---

Each record here notes measured mass density.
settings: 313.15 K; 100 kPa; Liquid; Vibrating tube method
Property Measured: mass density (kg/m3)

1. CCCCCOC(C)=O [pentyl ethanoate] = 855.357
2. COC(C)=O [methyl ethanoate] = 908.49
3. CCCCOC(C)=O [butyl ethanoate] = 860.84
4. CCOC(C)=O [ethyl acetate] = 876.247
5. CCCOC(C)=O [propyl ethanoate] = 866.115

---

Each record here notes measured speed of sound.
conditions: 293.15 K; 100 kPa; Liquid; Single path-length method
± gives the expanded uncertainty stated by the source.
Property Measured: speed of sound

1. CCCOC(C)=O [propyl ethanoate] = 1190.3 ± 4.5 m/s
2. CCCCCOC(C)=O [pentyl ethanoate] = 1243 ± 4.1 m/s
3. CCCCN(CCCC)CCCC [tributylamine] = 1264.2 ± 4 m/s
4. CCCCOC(C)=O [butyl ethanoate] = 1211.6 ± 4 m/s
5. COC(C)=O [methyl ethanoate] = 1180.4 ± 4 m/s
6. CCOC(C)=O [ethyl acetate] = 1164.3 ± 4 m/s

---

Each record here notes measured mass density.
conditions: 303.15 K; 100 kPa; Liquid; Vibrating tube method
Property Measured: mass density (kg/m3)

1) CCCCCOC(C)=O [pentyl ethanoate] = 865.782
2) CCCCOC(C)=O [butyl ethanoate] = 871.235
3) CCCOC(C)=O [propyl ethanoate] = 877.422
4) CCOC(C)=O [ethyl acetate] = 888.656
5) COC(C)=O [methyl ethanoate] = 921.85

---

Each record here notes measured mass density.
details: 308.15 K; 100 kPa; Liquid; Vibrating tube method
Property Measured: mass density (kg/m3)

1) CCCCOC(C)=O [butyl ethanoate] = 866.05
2) CCOC(C)=O [ethyl acetate] = 882.475
3) CCCOC(C)=O [propyl ethanoate] = 871.784
4) COC(C)=O [methyl ethanoate] = 915.16
5) CCCCCOC(C)=O [pentyl ethanoate] = 860.581

---

Each record here notes measured speed of sound.
conditions: 303.15 K; 100 kPa; Liquid; Single path-length method
Property Measured: speed of sound (m/s)

1) CCCOC(C)=O [propyl ethanoate] = 1145
2) CCOC(C)=O [ethyl acetate] = 1119.4
3) CCCCCOC(C)=O [pentyl ethanoate] = 1196.8
4) CCCCOC(C)=O [butyl ethanoate] = 1172.4
5) COC(C)=O [methyl ethanoate] = 1134.9
6) CCCCN(CCCC)CCCC [tributylamine] = 1226.2
